Hi there, I'd appreciate the recorded HeLa-ACE2 uninfected cytotoxicity Sinf Average for every entry that follows.
- Test system: HeLa-ACE2 cells
- protocol details: Uninfected HeLa-ACE2 24 h live/dead cytotoxicity counter screen
- Format: cell-based, human
- test conditions: curve-fit effect at infinite concentration, average
Express your answer in %, writing the number without its unit.

Query CNC(=O)n1ccc2cc(Oc3ccnc(NC(=O)c4ccc(C5CCN(CCO)CC5)cc4)c3)c(OCCOC)cc21 yields HeLa-ACE2 uninfected cytotoxicity Sinf Average of -100

Form: molecule = CC[C@H]1CN2CCc3cc(OC)c(OC)cc3[C@@H]2C[C@@H]1C[C@H]1NCCc2cc(O)c(OC)cc21 ; HeLa-ACE2 uninfected cytotoxicity Sinf Average = -100

Input C[C@]12O[C@H](C[C@]1(O)CO)n1c3ccccc3c3c4c(c5c6ccccc6n2c5c31)CNC4=O . Output HeLa-ACE2 uninfected cytotoxicity Sinf Average: -100

For record CC[C@H]1CN2CCc3cc(OC)c(OC)cc3[C@@H]2C[C@@H]1C[C@H]1NCCc2cc(OC)c(OC)cc21 the listed HeLa-ACE2 uninfected cytotoxicity Sinf Average is -99

Lab book: HeLa-ACE2 uninfected cytotoxicity Sinf Average of CC[C@@H]1/C=C/C=C/C[C@H](C)[C@@H](O)[C@](C)(O)C(=O)[C@H](C)[C@@H](O)[C@H](C)C(=O)[C@H](C)[C@@H](O)[C@H](C)/C=C/C(=O)O[C@H]2[C@@H](C)[C@@H](CC1)O[C@]1(O[C@H](C[C@H](C)O)[C@H](C)CC1=O)[C@@H]2C noted as -100

Entry C=C(C)[C@]12C[C@@H](C)[C@@]34O[C@](Cc5ccccc5)(O[C@@H]1[C@@H]3C=C(COC(=O)Cc1ccc(O)c(OC)c1)C[C@]1(O)C(=O)C(C)=C[C@@H]41)O2 — recorded HeLa-ACE2 uninfected cytotoxicity Sinf Average = -100

What the record says about COC(=O)[C@@]12OC[C@]34[C@H]([C@@H](O)[C@@H]1O)[C@@]1(C)CC(=O)C(O)=C(C)[C@@H]1C[C@H]3OC(=O)[C@H](OC(=O)/C=C(\C)C(C)C)[C@@H]24 [Bruceantin] : HeLa-ACE2 uninfected cytotoxicity Sinf Average is -100

Per the record, NS(=O)(=O)c1ccc(N2N=C(C(F)(F)F)CC2c2c[nH]c3c(Cl)cccc23)cc1 (stereo not shown) has HeLa-ACE2 uninfected cytotoxicity Sinf Average of -103

Sure, the documented HeLa-ACE2 uninfected cytotoxicity Sinf Average for COC(=O)[C@]12CCC(C)(C)C[C@H]1[C@H]1C(=O)C=C3[C@@]4(C)C=C(C#N)C(=O)C(C)(C)[C@@H]4CC[C@@]3(C)[C@]1(C)CC2 is -101

So, CC(=O)O[C@H]1C[C@H](O[C@H]2[C@@H](O)C[C@H](O[C@H]3[C@@H](O)C[C@H](O[C@H]4CC[C@@]5(C)[C@H](CC[C@@H]6[C@@H]5C[C@@H](O)[C@]5(C)[C@@H](C7=CC(=O)OC7)CC[C@]65O)C4)O[C@@H]3C)O[C@@H]2C)O[C@H](C)[C@H]1O[C@@H]1O[C@H](CO)[C@@H](O)[C@H](O)[C@H]1O [Lanatoside C] ? Its HeLa-ACE2 uninfected cytotoxicity Sinf Average was -101
